Read-out: Collagen IV, COL4A1 (gene 1282)
Test: BSK_MyoF_CollagenIV: BioMAP Diversity Plus: MyoF Assay for Collagen IV Biomarker Activity (AID 2284247)
Conditions: primary human lung fibroblasts
Active and inactive are the calls of the source. Rule for the calls: active = hit-call score of the fitted dose curve at least 0.9, where 1 is the maximum; inactive = score below 0.9.
Valid outcomes are listed here; reply with one: Y (active), N (inactive)

Example cases with answers are listed next.
1. O=C(O)C(F)(OC(F)(F)C(F)(F)C(F)(F)F)C(F)(F)F (centres undefined) ... N
2. Cc1c([N+](=O)[O-])cc2c(c1[N+](=O)[O-])C(C)(C)CC2(C)C ... Y
3. N#Cc1cc([N+](=O)[O-])ccc1N ... N
4. N#Cc1c(-c2ccc(Cl)cc2)[nH]c(C(F)(F)F)c1Br ... N
5. Nc1ccc([N+](=O)[O-])cc1Cl ... N

Lab log entry: `CCOP(=S)(OCC)SCS(=O)(=O)CC` — outcome as called in the assay?
N

# fetch the recorded call for `O=C(O)C(F)(F)OC(F)(F)C(F)(F)OC(F)(F)F` here
N

Identify the outcome logged in this assay for the compound shown: `CCCCOCCOP(=O)(OCCOCCCC)OCCOCCCC`
N

I'd appreciate the recorded outcome for `COP(=O)(O)OC` from this test.
N

###

Target: Estrogen receptor (Homo sapiens)
Test: ATG_ERa_TRANS: Attagene TRANS-FACTORIAL HepG2 Assay for human Estrogen Receptor alpha (ERa) (AID 2282970)
Conditions: HepG2 Attagene TRANS ERa GAL4 reporter, mRNA
Records with an inconclusive call do not appear. Activity calls are given as the source filed them. Rule for the calls: active = hit-call score of the fitted dose curve at least 0.9, where 1 is the maximum; inconclusive = response in the unintended direction; inactive = score below 0.9.
Allowed answers: Y (active), N (inactive)

Illustrative cases are given below, each with its answer.
1. O=C(O)C(F)(OC(F)(F)C(F)(F)C(F)(F)F)C(F)(F)F (centres undefined) ... N
2. ClC1=C(Cl)C2(Cl)C3C(Cl)C(Cl)CC3C1(Cl)C2(Cl)Cl (centres undefined) ... Y
3. O=C(CBr)OCc1ccccc1 ... N
4. O=P1(N(CCCl)CCCl)NCCCO1 (centres undefined) ... Y
5. Oc1ccc(I)cc1 ... Y
6. CCOP(=S)(OCC)SCS(=O)(=O)CC ... N
7. O=NN1CCCC1 ... N
8. OCC(F)(F)OC(F)(F)C(F)(F)OC(F)(F)C(F)(F)OC(F)(F)CO ... Y

Which outcome was assigned to `C/C(=N\NC(=O)Nc1cc(F)cc(F)c1)c1ncccc1C(=O)O` in this test?
N

Could you please tell me the result logged for `NC(=O)C(F)(F)C(F)(F)F` in this assay?
N

For CCCCC(CC)COP(=O)(Oc1ccccc1)Oc1ccccc1 (centres undefined) , what call appears in the results of this test?
Y

Per the records of this test, what outcome belongs to `Nc1ccc([N+](=O)[O-])cc1Cl` ?
N

Per the records of this test, what outcome belongs to `CC(Cl)(Cl)C(=O)O` ?
N

Lab log entry: `c1ccc2c(c1)Nc1ccccc1S2` — outcome as called in the assay?
Y

###

Assay: IUF_NPC4_neurite_area_120hr: Leibniz Research Institute for Environmental Medicine (IUF) 120-hour Neuronal Morphology Assay for Neurite Area (NPC4) (AID 2284305)
Inconclusive results are not listed. The source made the active and inactive calls. The calls were made as follows: active = hit-call score of the fitted dose curve at least 0.9, where 1 is the maximum; inconclusive = response in the unintended direction; inactive = score below 0.9.
Pick one and only one: 1 for active, 0 for inactive

What outcome does the record of this test show for `CCOc1ccc(C(C)(C)COCc2cccc(Oc3ccccc3)c2)cc1` ?
0

What did this assay record as the result for CCCCC(CC)COP(=O)(Oc1ccccc1)Oc1ccccc1 (configuration not stated) ?
0

For `CC(C)(C)c1ccccc1OP(=O)(Oc1ccccc1)Oc1ccccc1` , what call appears in the results of this test?
0

Status in this test for O=S1(=O)OCC2C(CO1)C1(Cl)C(Cl)=C(Cl)C2(Cl)C1(Cl)Cl (configuration not stated) ?
0

Lab log entry: O=C(O)C(F)(OC(F)(F)C(F)(F)C(F)(F)F)C(F)(F)F (configuration not stated) — outcome as called in the assay?
1

Could you please tell me the result logged for `CCCCOCCOP(=O)(OCCOCCCC)OCCOCCCC` in this assay?
0

Each compound tested received a call. Report the one for `CCOP(=S)(OCC)SCSCC` .
0

###

Read-out: Interleukin-8 (IL8), CXCL8 (gene 3576)
Test: BSK_SAg_IL8: BioMAP Diversity Plus: SAg Assay for Interleukin-8 (IL8) Biomarker Activity (AID 2283094)
Conditions: primary human HUVEC with PBMC; actives raise or lower the signal
The source made the active and inactive calls. Rule for the calls: active = hit-call score of the fitted dose curve at least 0.9, where 1 is the maximum; inactive = score below 0.9.
Could you please pick one outcome from this set? active, inactive

Below, 5 molecules whose answers are already recorded.
1. CCOS(=O)(=O)OCC ... inactive
2. CCNc1nc(Cl)nc(NC(C)(C)C)n1 ... inactive
3. COCCOCCO ... inactive
4. CN(C)C(=O)Cl ... inactive
5. c1ccc2c(c1)Nc1ccccc1S2 ... inactive

Outcome logged for `NC(=O)C(F)(F)C(F)(F)F` in this assay:
inactive

Recorded test call requested for `CCOP(=S)(OCC)SCn1nnc2ccccc2c1=O`
inactive

Per the assay record, what outcome was assigned to `CCOP(=S)(OCC)SCSc1ccc(Cl)cc1` ?
active

###

Test: BSK_LPS_PGE2: BioMAP Diversity Plus: LPS Assay for Prostaglandin E2 (PGE2) Biomarker Activity (AID 2283082)
Conditions: primary human HUVEC with PBMC; actives raise or lower the signal
The source made the active and inactive calls. The calls were made as follows: active = hit-call score of the fitted dose curve at least 0.9, where 1 is the maximum; inactive = score below 0.9.
Select the matching outcome among T (active), F (inactive)

1) O=C(O)C1C(C(=O)O)C2(Cl)C(Cl)=C(Cl)C1(Cl)C2(Cl)Cl (centres undefined) ... F
2) ClC(Cl)=C(c1ccc(Cl)cc1)c1ccccc1Cl ... F
3) O=c1ssc(Cl)c1Cl ... T
4) CCCCCCCc1ccc(O)cc1 ... T
5) FC(F)(F)C(F)(C(F)(F)F)C(F)(F)C(F)(F)CC1CO1 (centres undefined) ... F

What is the recorded call for this molecule in the test? `N#Cc1cc([N+](=O)[O-])ccc1N`
F

Hi, do you know how `CCOc1ccc(C(C)(C)COCc2cccc(Oc3ccccc3)c2)cc1` came out in this test?
F

Kindly provide the recorded test outcome for the following molecule: `COCCOCCO`
F

So what was the verdict on `O=P(Oc1ccccc1)(Oc1ccccc1)Oc1ccccc1` in this test?
F

Which result was noted for this molecule in the test: `ClC(Cl)c1ccccc1`
F

Record request — test call for `Cc1cccc(N)c1`
F

Give the logged outcome of this assay for the following molecule: `O=C(O)C(Cl)Cl`
F

Name the outcome recorded for `Cc1c([N+](=O)[O-])cc2c(c1[N+](=O)[O-])C(C)(C)CC2(C)C` in the assay.
F

# lookup: test call for `O=C(O)C(F)(F)OC(F)(F)C(F)(F)OC(F)(F)F`
F

###

Read-out: MYC, MYC (gene 4609)
Experiment: LTEA_HepaRG_MYC: Life Technologies and Expression Analysis (LTEA) Assay for MYC using HepaRG (AID 2283518)
Details: mRNA level, 48 h; actives raise or lower the signal
Activity calls are given as the source filed them. How the source made its calls: active means hit-call score of the fitted dose curve at least 0.9, where 1 is the maximum; inactive means score below 0.9.
The categories you may choose from are true (1) = active, false (0) = inactive

What is the recorded call for this compound in the test? `CSC(C)(C)C=NO`
false (0)

Fill in: this test's call for `[N-]=[N+]=[N-]` is ___
true (1)

Recorded test outcome, item `CCOS(=O)(=O)OCC`
false (0)

Could you kindly confirm the outcome this assay logged for O=P1(N(CCCl)CCCl)NCCCO1 (stereo unspecified) ?
false (0)

// outcome(item) with item = `CC(C)(C)OOC(C)(C)C`
false (0)

Fill in: this test's call for `CCCCc1ccccc1` is ___
false (0)

Check the results log: what was the call for `c1ccc(OP(Oc2ccccc2)Oc2ccccc2)cc1` ?
false (0)

Each compound tested received a call. Report the one for `Cc1ccc(O)cc1C` .
false (0)

Outcome logged for `ClC(Cl)(Cl)c1ccccc1` in this assay:
false (0)

###

Read-out: Low-density lipoprotein receptor (LDLR), LDLR (gene 3949)
Assay: BSK_CASM3C_LDLR: BioMAP Diversity Plus: CASM3C Assay for Low-density lipoprotein receptor (LDLR) Biomarker Activity (AID 2283045);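 note: LDLR protein level on the cell surface quantified by ELISA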
Details: primary human coronary artery smooth muscle cells; actives raise or lower the signal
Activity calls are given as the source filed them. How the source made its calls: active means hit-call score of the fitted dose curve at least 0.9, where 1 is the maximum; inactive means score below 0.9.
// allowed return values: T (active), F (inactive)

Worked examples, 6 compounds total:
1) CCCCc1ccccc1 ... F
2) Cc1cccc(N)c1 ... F
3) OCC1CO1 (stereo not given) ... F
4) ClC(Cl)=C(c1ccc(Cl)cc1)c1ccccc1Cl ... T
5) Nc1cc2c3c(c1)C(c1ccccc1)=N[C@@H](NC(=O)c1cccnc1)C(=O)N3CC2 ... F
6) COC(=O)C(F)(F)C(F)(F)OC(F)(C(F)(F)F)C(F)(F)OC(F)=C(F)F (stereo not given) ... F

Please share the test call associated with `CCOP(=S)(OCC)SCn1nnc2ccccc2c1=O` .
T

###

Assay: APR_HepG2_NuclearSize_24hr: Apredica 24-hour HepG2 Assay for Nuclear Size (AID 2282907)
Conditions: high-content imaging, actives raise or lower the signal
Experimental: APR_HepG2_24hr is a cell-based, multiplexed-readout assay that uses HepG2, a human liver cell line, with measurements taken at 24 hours after chemical dosing in a 384-well plate.APR_HepG2_NuclearSize_24hr is one of 10 assay component(s) measured or calculated from the APR_HepG2_24hr assay. […] This assay endpoint, APR_HepG2_NuclearSize_24hr, was analyzed with bidirectional fitting relative to DMSO as the negative control and baseline of activity. […]
Calls of active or inactive are those of the source. The calls were made as follows: active = hit-call score of the fitted dose curve at least 0.9, where 1 is the maximum; inactive = score below 0.9.
measured-attribute: outcome

Guide cases for outcome, answers given:
1) c1nc[nH]n1 ... inactive
2) O=C(O)C(Cl)Cl ... inactive
3) CCC1(c2ccccc2)C(=O)N=C(O)NC1=O (centres undefined) ... inactive
4) Cc1ccc([N+](=O)[O-])cc1C ... inactive
5) CC(Cl)(Cl)C(=O)O ... inactive
6) CCC(C)(C)c1ccc(O)cc1 ... inactive
7) CCCN(CCC)c1c([N+](=O)[O-])cc(C(C)C)cc1[N+](=O)[O-] ... inactive
8) CC(C)(C)OOC(C)(C)C ... inactive

For `O=P(Oc1ccccc1)(Oc1ccccc1)Oc1ccccc1` , write its outcome.
inactive

Annotate the compound `CCCCCCCc1ccc(O)cc1` with its measured outcome.
inactive

Retrieve outcome measured for `CCOC(=O)c1ccccc1C(=O)OCC` and print it.
inactive

For `Cc1cccc(N)c1` , write its outcome.
inactive

Supply reported outcome belonging to this compound: `ClC(Cl)c1ccccc1`
inactive

Please give the documented outcome of O=C(O)C1C(C(=O)O)C2(Cl)C(Cl)=C(Cl)C1(Cl)C2(Cl)Cl (centres undefined)
inactive

Output measured outcome for this item: O=P1(N(CCCl)CCCl)NCCCO1 (centres undefined)
inactive
